# System: MOLT-4 leukemia
# protocol_description: NCI tumour cell line growth inhibition, 48 h
measure_name: TGI

Consider the following illustrative entries.
compound	TGI
COC(=O)/C(=N/NC(=O)C[N+](C)(C)C)C(C(=O)OC)C(=O)C(=O)Nc1ccc(F)cc1 (stereo not given)	> 100 µM
O=C(N/N=C/c1ccco1)c1cc(I)cc(I)c1O	> 50 µM
CCOc1cc2c(Cl)ncnc2c(OCC)c1OCC	10.4 µM
C=CCOCCCCC(C(C)=O)C(=O)OC (stereo not given)	> 100 µM
O=[N+]([O-])c1ccc(NC(=S)N=Nc2c(O)[nH]c3ccc(Br)cc23)cc1	> 100 µM

### Prompt What value of TGI has been reported for the following compound? CCOC(=O)C(CC#Cc1ccc(C#CCC(NC(C)=O)C(=O)OCC)cc1)NC(C)=O (stereo not given)
### Response > 100 µM

### Prompt What value of TGI has been reported for the following compound? FC(F)(F)c1cccc(Nc2nccc(-c3cnn4nc(-c5ccccc5)ccc34)n2)c1
### Response > 25 µM

### Prompt What value of TGI has been reported for the following compound? O=C1C=CC(=O)c2c(O)c(NCCc3ccc(O)cc3)c(Cl)c(O)c21
### Response > 10 µM

* * *

# System: SN12C renal
# protocol_description: NCI tumour cell line growth inhibition, 48 h
measure_name: TGI

Consider the following illustrative entries.
compound	TGI
Brc1cccc(C=NC23CC4CC(CC(C4)C2)C3)c1	> 100 µM
Cc1cccc(C)c1NC(=O)C(=O)C1C(=O)NC(=O)NC1=O	> 100 µM

### Prompt TGI of CCCCc1ccc(Nc2nc3c(ncn3COCCO)c(=O)[nH]2)cc1 on SN12C renal?
### Response > 100 µM

### Prompt TGI of COC(=O)Cc1c([C@H]2[C@H](CC(=O)OC)c3ccccc3N2C(C)=O)[nH]c2ccccc12 on SN12C renal?
### Response > 100 µM

### Prompt TGI of CC1(C)OCC2OC3([C@H]4OC(C)(C)O[C@@H]4CO)OC(C)(C)OC3C2O1 (stereo not given in full) on SN12C renal?
### Response > 100 µM

### Prompt TGI of CCC(C)C(=O)OC1CC2(C)C(c3ccoc3)OC(=O)CC23OC2(C)OC34C(OC(=O)C(C)C)C3(O)C(OC(=O)C5(C)OC5C)C5(C)CC3(O)C(C)(C5CC(=O)OC)C14O2 (stereo not given) on SN12C renal?
### Response > 100 µM

### Prompt TGI of C=c1c(OC)c(OC)c(O)c2c1=c1cc([N+](=O)[O-])cc(OC)c1=N2 on SN12C renal?
### Response > 100 µM

* * *

Reported TGI is given for each of the following molecules.
# System: RPMI-8226 leukemia
# protocol_description: NCI tumour cell line growth inhibition, 48 h

### Prompt What value of TGI has been reported for the following molecule? CNC(=O)N(CCC#N)[C@H]1CCCC[C@@H]1N(C(=O)NC)c1ccccc1
### Response > 100 µM

### Prompt What value of TGI has been reported for the following molecule? COCC1OC(N2C(=O)NC(=O)[C@@H]3C=C4CCCCC4=C[C@@H]32)C(OC)C1OC (stereo partly drawn)
### Response > 100 µM

### Prompt What value of TGI has been reported for the following molecule? CN1C(=O)C2(Cc3cn(C45CC67SSC(CO)(C(=O)N6C4Nc4ccccc45)N(C)C7=O)c4ccccc34)SSC1(CO)C(=O)N2C (stereo not drawn)
### Response > 100 µM
